system: KM12 colon; assay: NCI tumour cell line growth inhibition, 48 h; in the data active = GI50 below about 0.43 µM; inactive = the rest
Just give me one of these, please: T = active, F = inactive

Recorded call for C[C@@H](Oc1cc(-c2cnn(C3CC4(CCNCC4)C3)c2)cnc1N)c1c(F)ccc(Cl)c1Cl ?
T

Which outcome did this test record for the compound Fc1ccc(Nc2ccc3cc(OCCCN4CCOCC4)ccc3n2)cc1F ?
F

Record request — test call for CCC[C@H](Nc1nc(-c2ccc(NC(=O)NCC)c(OC)c2)ncc1C)c1cccnc1
T

* * *

tested on: RXF 393 renal; assay: NCI tumour cell line growth inhibition, 48 h
Provide the recorded TGI for the entries that follow.

Which TGI reading was recorded for the compound CCC(C)C(NC(=O)C(CCCCN)NC(=O)C(NC(=O)C(CCC(N)=O)NC(=O)C(CCCNC(=N)N)NC(C)=O)C(C)CC)C(=O)NC(Cc1c[nH]c2ccccc12)C(=O)NC(Cc1ccccc1)C(=O)NC(CCC(N)=O)C(=O)NC(CC(N)=O)C(=O)NC(CCCNC(=N)N)C(=O)NC(CCCNC(=N)N)C(=O)NC(CCSC)C(=O)NC(CCCCN)C(=O)NC(Cc1c[nH]c2ccccc12)C(=O)NC(CCCCN)C(=O)NC(CCCCN)C(N)=O (configuration not stated) ?
> 50 µM

Look up TGI for this compound: O=C(/C=C/C12c3ccccc3C(c3ccccc31)C1C(=O)NC(=O)C12)c1ccco1 (configuration not stated)
3.48 µM

Reported TGI for O=c1[nH]cnc2c1nnn2[C@@H]1O[C@H](CO)[C@@H](O)[C@H]1O : what is it?
> 100 µM

Find the recorded TGI belonging to Cc1ccc(C2=NN(C)COC2C(F)(F)F)cc1 (configuration not stated) and report it.
> 100 µM

Request the reported TGI associated with COC(=O)CC1CN(C(=O)OCc2ccccc2)C(C)(C)O1 (configuration not stated)
> 100 µM

Look at this compound and give its reported TGI. Cc1ccc(-c2nc3nc(-c4ccc(Cl)cc4)nc(N4CCCNCC4)c3o2)cc1
3.03 µM

Using the record for O=C1CS(=O)(=O)C(c2cccc(Oc3ccccc3)c2)N1c1cccc(Cl)c1Cl (configuration not stated) , report its TGI.
66.9 µM

Which value of TGI has been reported for O=C1OC(c2ccccc2)=N/C1=C/c1cccs1 in the records?
> 100 µM

Entry under review: COc1ccc(C2c3cc4c(cc3OC(O)(CO)C2C(=O)O)OCO4)c(OC)c1OC (configuration not stated) (tested in a mixture with another compound) . Reported TGI?
> 100 µM

Quick one: TGI of CCC1=NC(N/N=C/c2ccccc2O)=N/C1=C\c1ccccc1O ?
> 73.4 µM

Which TGI is listed for CC1=C(C#N)C(=O)N(/N=C/c2ccc(Cl)cc2)C(=O)/C1=c1\o/c(=C2/C(=O)N(/N=C/c3ccc(Cl)cc3)C(=O)C(C#N)=C2C)c2nccnc12 ?
> 100 µM

// TGI lookup, key: O=C(/C=C/c1ccc2c(c1)OCO2)c1ccccc1
28.7 µM

So what's the measured TGI for this one? CN=C1Nc2ccccc2C(=S)N2CSC[C@@H]12
> 100 µM

Reported TGI, compound CCCCC1Cc2cc(OC)ccc2-c2nc3cc(OC)ccc3n21 (configuration not stated) (tested in a mixture with another compound) : ____
30.8 µM

Could you tell me which TGI is on file for CC(=O)NNc1nc(C)c(C(/C=C/c2ccccc2O)=N/NC(=O)c2ccncc2)s1 ?
> 100 µM

Which value of TGI has been reported for OC(c1ccc(-c2ccccc2)cc1)(c1ccc(-c2ccccc2)cc1)c1ccc(-c2ccccc2)cc1 in the records?
> 100 µM

// TGI lookup, key: OC1C=C2C3CN(Cc4cc5c(cc43)OCO5)[C@H]2C[C@@H]1O (some centres not stated)
21.4 µM

* * *

test system: HS 578T breast; test: NCI tumour cell line growth inhibition, 48 h
Would you mind telling me the reported TGI of each entry?

Can you look up the measured TGI of C[N+]1(C)C2CCC1CC(OC(=O)C(CO)c1ccccc1)C2 (stereo unspecified) for me?
> 100 µM

Item C=C1C(=O)O[C@H]2[C@H]1CC/C(COC(=O)N[C@@H](Cc1c[nH]c3ccccc13)C(=O)OC)=C\CC[C@@]1(C)O[C@@H]21 has what recorded TGI?
28.5 µM

Can you look up the measured TGI of O=C(n1[nH]c(=O)n(-c2ccc([N+](=O)[O-])cc2)c1=O)C(Cl)(Cl)Cl for me?
> 75 µM

# query: TGI of entry O=C(Nc1nc(-c2ccc(Cl)cc2)cs1)c1ccc(O)c(O)c1
53.9 µM

Look up TGI: O=C(/C=C/c1ccc2c(c1)OCO2)c1ccccc1
45.6 µM

Need TGI, item C/C=C/C/C=C/CCC(=O)C1OC1C(N)=O (stereo unspecified)
76.2 µM

For CC(=O)NC(Cc1c[nH]c2ccccc12)C(=O)O (stereo unspecified) , what is its reported TGI?
> 100 µM

# input compound: COCC1OCCN1C (stereo unspecified) ; wanted: its TGI
> 100 µM

Returns the measured TGI for the input compound. Input: O=C1c2ccccc2-c2ccc(O)cc21
> 100 µM

What value of TGI has been recorded for this entry: CC1=Cc2cc3[n-]c(cc4nc(cc5[n-]c(cc1n2)c(C)c5CCC(=O)O)C(CCC(=O)O)=C4C)cc3C.[Cu+2]
> 100 µM

Endpoint output: TGI of Cc1ccc2nc(CN3CCCCC3)cc(=O)n2c1 . Value?
> 100 µM

* * *

system: A498 renal; assay: NCI tumour cell line growth inhibition, 48 h
MEASURED PARAMETER: TGI

Which TGI value is on record for COC(=O)c1cccc(C)c1C1CN=NC12Cc1c(ccc(C)c1C)C2=O (stereo unspecified) ?
> 100 µM

Using the record for O=C(CC1(O)C(=O)Nc2ccccc21)c1ccc(O)cc1O (stereo unspecified) , report its TGI.
> 100 µM

Give its TGI value. Item: C=C1C(=O)O[C@H]2[C@H]1CC/C(COC(=O)NCCc1c[nH]c3ccccc13)=C\CC[C@@]1(C)O[C@@H]21
21.2 µM

I would be grateful if you could share the reported TGI for O=C1CC(c2ccccc2)NCN1 (stereo unspecified) .
> 100 µM

Using the record for C/C(=N\[N+](C)(C)C)C(c1ccccc1)C1(c2ccccc2)C(c2ccccc2)=C1c1ccccc1 (stereo unspecified) , report its TGI.
> 100 µM

Which measured TGI value corresponds to C#CCOC(=O)C(N)CS (stereo unspecified) ?
> 100 µM

* * *

system: HS 578T breast; experiment: NCI tumour cell line growth inhibition, 48 h
MEASURED PARAMETER: TGI

Using the record for CCC1=NC(N/N=C/c2ccccc2O)=N/C1=C\c1ccccc1O , report its TGI.
> 83.7 µM

TGI for Cc1ccc(-c2cnc(NC3OC(COC(=O)c4ccccc4)C(OC(=O)c4ccccc4)C(OC(=O)c4ccccc4)C3OC(=O)c3ccccc3)s2)cc1 (centres undefined) ?
> 100 µM

Reported TGI for O=C1OC(c2ccccc2)=N/C1=C/c1cccs1 : what is it?
> 100 µM

Quick one: TGI of C=CCN1C(=O)N/C(=C\c2ccc(Cl)cc2)C1=O ?
> 100 µM

Endpoint output: TGI of COc1cc2c(cc1OCCCCCN1CCN(c3cc(=O)oc4c(C)c(OC)ccc34)CC1)N=C[C@@H]1CCCN1C2=O . Value?
0.791 µM

Which TGI is reported for this molecule? O=C(Nc1cccc(-c2nc3ccccc3[nH]2)c1)c1cccc(NC(=O)c2ccco2)c1
5.97 µM

Bench note: what TGI did C/C(=C\c1ccn(-c2ccc(N)cc2C(F)(F)F)n1)[C@@H]1C[C@@H]2O[C@]2(C)CCC[C@H](C)[C@H](O)[C@@H](C)C(=O)C(C)(C)[C@@H](O)CC(=O)O1 show?
4.3 µM

Dear colleague, I am looking for the recorded TGI of the following molecule: O=C(O)C(Cc1ccccc1)N1C(=O)c2ccccc2C1=O (centres undefined)
> 100 µM

Form field: reported TGI of COC(=O)c1cccc(C)c1C1CN=NC12Cc1c(ccc(C)c1C)C2=O (centres undefined)
> 100 µM

* * *

tested on: HT29 colon; assay: NCI tumour cell line growth inhibition, 48 h
MEASURED PARAMETER: TGI

So what TGI did CC(=O)Oc1cc2c(=O)oc3c(OC(C)=O)c(OC(C)=O)c(OC(C)=O)c4c(=O)oc(c1OC(C)=O)c2c34 get with HT29 colon?
> 100 µM

Return TGI measured with HT29 colon given this compound: NC1=NN(c2ccccc2)C(=O)C1C(=O)C(=O)Nc1cccc(C(F)(F)F)c1 (stereo not drawn)
> 100 µM

Recall the recorded TGI for COc1c(C(CC(C)C)OC(C)=O)ccc2c1C(=O)OCc1cc(C)cc(O)c1O2 (stereo not drawn) with HT29 colon and state it.
32.2 µM

Observed TGI on HT29 colon for CCCOc1ccc(/C=C/C2=[N+](CCO)CCO2)cc1 , please.
> 100 µM

Form field: TGI recorded for N#CC(c1ccc(Cl)cc1)c1cccc(Cl)n1 (stereo not drawn) with HT29 colon (enter value)
> 100 µM

Request - read-out TGI | tested on HT29 colon | compound O=c1[nH]cnc2c1nnn2[C@@H]1O[C@H](CO)[C@@H](O)[C@H]1O
> 100 µM

# query: TGI | item CC(C)(C)c1cc(N=NC(=S)NCc2ccccc2)cc(C(C)(C)C)c1O | system: HT29 colon
> 100 µM

Lookup: TGI / HT29 colon / CC1=Cc2cc3[n-]c(cc4nc(cc5[n-]c(cc1n2)c(C)c5CCC(=O)O)C(CCC(=O)O)=C4C)cc3C.[Cu+2]
> 100 µM

GET /values?readout=TGI&system=HT29 colon&item= COC1CCC(OS(C)(=O)=O)CO1 (stereo not drawn)
> 100 µM

So what TGI did C[N+]1(C)C2CCC1CC(OC(=O)C(CO)c1ccccc1)C2 (stereo not drawn) get with HT29 colon?
> 100 µM

Please tell me: TGI of CCOC(=O)c1c(-c2ccc(Cl)cc2)c(C#N)c(=S)n(C2OC(CO)C(O)C(O)C2O)c1-c1ccccc1 (stereo not drawn) , system HT29 colon?
36.2 µM

Any idea what TGI came out for CO[C@@]12C[C@@H](CNC(=O)c3cc(Br)c[nH]3)O[C@@H]1NC(=O)N2 on HT29 colon?
> 100 µM

// lookup TGI | system=HT29 colon | key= COc1ccc(-c2cc(=O)c3c(O)c(OC)c(O)cc3o2)cc1O
> 61.8 µM

State its TGI on HT29 colon: CC1=C([Se]CC(OC(=O)[C@@H](CSSC(C)(C)C)NC(=O)C(C)(C)C)C(=O)NCCCCCC(=O)OCc2ccccc2)C(=O)c2ccccc2C1=O (stereo partly drawn)
7.34 µM

Look up TGI with HT29 colon for this compound: Cc1nn(-c2ccccc2)c2nc3c(c(C)nn3-c3ccccc3)c(-c3ccccc3Br)c12
> 100 µM

Query the reported TGI for HT29 colon; item: N=c1oc2cc(O)c(O)cc2cc1C(N)=O
> 100 µM

Identify the measured TGI of CC(=O)O[C@H]1C(=O)[C@@]2(C)[C@H]([C@H](OC(=O)c3ccccc3)[C@]3(O)C[C@H](OC(=O)[C@H](OC(=O)CCC(=O)OC4CCC(S/N=C(N)/N=C(\N)N(C)C)CC4)[C@@H](NC(=O)c4ccccc4)c4ccccc4)C(C)=C1C3(C)C)[C@]1(OC(C)=O)CO[C@@H]1C[C@@H]2O (stereo partly drawn) for HT29 colon.
> 50 µM

Identify the measured TGI of N#Cc1c(C(N)=O)ncn1Cc1ccccc1 for HT29 colon.
> 100 µM

Data provenance: PubChem BioAssay (NCI)
